Data origin: ChEMBL document CHEMBL2439987

TGT: Transient receptor potential cation channel subfamily V member 1 (Homo sapiens)
TEST_DESCRIPTION: Antagonist activity at human TRPV1 expressed in CHOK1 cells assessed as inhibition of capsaicin-induced activity by FLIPR assay
Assay type: cell-based, CHO-K1
DETAILS: read-out: Ki
Listing of entries alongside the reported pKi.
Field pKi (float): negative decimal logarithm of the concentration in molar.

Worked examples follow.
COMPOUND | pKi
CC(C(=O)NCc1ccc(C(F)(F)F)nc1SCC1CCCCC1)c1ccc(NS(C)(=O)=O)c(F)c1 (stereo not drawn) | 8.64
C[C@@H](C(=O)NCc1ccc(C(F)(F)F)nc1SC1CCCCC1)c1ccc(NS(C)(=O)=O)c(F)c1 | 7.36
CC(C(=O)NCc1ccc(C(F)(F)F)nc1SCCCN1CCCC1)c1ccc(NS(C)(=O)=O)c(F)c1 (stereo not drawn) | 8.48
CC(C(=O)NCc1ccc(C(F)(F)F)nc1SCCCN(C)C)c1ccc(NS(C)(=O)=O)c(F)c1 (stereo not drawn) | 7.56

### Prompt Report pKi for CC(C(=O)NCc1ccc(C(F)(F)F)nc1SCCOc1ccccc1)c1ccc(NS(C)(=O)=O)c(F)c1 (stereo not drawn) please.
### Response 8.64

### Prompt Report pKi for CC(C)CCSc1nc(C(F)(F)F)ccc1CNC(=O)C(C)c1ccc(NS(C)(=O)=O)c(F)c1 (stereo not drawn) please.
### Response 9.15

### Prompt Report pKi for Cc1ccc(CSc2nc(C(F)(F)F)ccc2CNC(=O)C(C)c2ccc(NS(C)(=O)=O)c(F)c2)cc1 (stereo not drawn) please.
### Response 8.49

### Prompt Report pKi for CC(C(=O)NCc1ccc(C(F)(F)F)nc1SCCC(=O)N1CCCC1)c1ccc(NS(C)(=O)=O)c(F)c1 (stereo not drawn) please.
### Response 7.07

====

TGT: Transient receptor potential cation channel subfamily V member 1 (Homo sapiens, UniProt Q8NER1)
Sequence (Q8NER1 whole entry): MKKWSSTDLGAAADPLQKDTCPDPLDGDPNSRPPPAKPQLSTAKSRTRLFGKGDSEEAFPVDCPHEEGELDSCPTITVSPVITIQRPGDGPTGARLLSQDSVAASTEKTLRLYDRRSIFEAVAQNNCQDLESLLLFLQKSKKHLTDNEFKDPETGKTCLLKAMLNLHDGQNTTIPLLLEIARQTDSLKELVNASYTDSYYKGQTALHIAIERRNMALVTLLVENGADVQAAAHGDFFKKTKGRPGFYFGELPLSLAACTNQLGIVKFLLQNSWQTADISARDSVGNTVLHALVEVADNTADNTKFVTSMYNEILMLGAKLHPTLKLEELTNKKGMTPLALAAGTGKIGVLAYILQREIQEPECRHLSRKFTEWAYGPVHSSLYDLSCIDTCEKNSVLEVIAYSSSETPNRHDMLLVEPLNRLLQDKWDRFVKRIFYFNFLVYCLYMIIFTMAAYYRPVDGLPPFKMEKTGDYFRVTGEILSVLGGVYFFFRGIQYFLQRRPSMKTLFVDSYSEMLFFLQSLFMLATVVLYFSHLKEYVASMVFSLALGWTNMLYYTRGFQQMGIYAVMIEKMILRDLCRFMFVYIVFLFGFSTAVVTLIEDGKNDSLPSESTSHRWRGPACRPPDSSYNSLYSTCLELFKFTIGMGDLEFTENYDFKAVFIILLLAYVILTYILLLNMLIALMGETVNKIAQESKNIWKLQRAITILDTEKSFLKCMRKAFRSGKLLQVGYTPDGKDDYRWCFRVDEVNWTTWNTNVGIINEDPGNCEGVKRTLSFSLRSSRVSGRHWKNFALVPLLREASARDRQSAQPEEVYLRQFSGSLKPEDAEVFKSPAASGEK
TEST_DESCRIPTION: Antagonist activity at human TRPV1 expressed in CHOK1 cells assessed as inhibition of 45 degC heat-induced activity after 5 mins by FLIPR assay
Assay type: cell-based, CHO-K1
QUANTITY_MEASURED: pIC50
Field pIC50 (float): negative decimal logarithm of the concentration in molar.

### Prompt Report pIC50 for C[C@H](C(=O)NCc1ccc(C(F)(F)F)nc1SC1CCCCC1)c1ccc(NS(C)(=O)=O)c(F)c1 please.
### Response 7.65

====

TGT: Transient receptor potential cation channel subfamily V member 1 (Homo sapiens)
TEST_DESCRIPTION: Antagonist activity at human TRPV1 expressed in CHOK1 cells assessed as inhibition of N-arachidonoyl dopamine-induced activity after 5 mins by FLIPR assay
QUANTITY_MEASURED: pKi
Field pKi (float): negative decimal logarithm of the concentration in molar.

### Prompt Report pKi for C[C@H](C(=O)NCc1ccc(C(F)(F)F)nc1SC1CCCCC1)c1ccc(NS(C)(=O)=O)c(F)c1 please.
### Response 10.30

====

TGT: Transient receptor potential cation channel subfamily V member 1 (Homo sapiens)
TEST_DESCRIPTION: Antagonist activity at human TRPV1 expressed in CHOK1 cells assessed as inhibition of capsaicin-induced activity by FLIPR assay
Format: cell-based, CHO-K1
DETAILS: read-out: Ki
QUANTITY_MEASURED: Ki (nM)
Dear colleague, please return just the value in nM, with no unit written.

Worked examples follow.
COMPOUND | TGT | QUANTITY_MEASURED | NUMERIC_VALUE
COC(=O)CCSc1nc(C(F)(F)F)ccc1CNC(=O)C(C)c1ccc(NS(C)(=O)=O)c(F)c1 (centres undefined) | Transient receptor potential cation channel subfamily V member 1 (Homo sapiens) | Ki | 48.2
CC(C(=O)NCc1ccc(C(F)(F)F)nc1SCCCN1CCCCC1)c1ccc(NS(C)(=O)=O)c(F)c1 (centres undefined) | Transient receptor potential cation channel subfamily V member 1 (Homo sapiens) | Ki | 3

### Prompt Report Ki for CC(C(=O)NCc1ccc(C(F)(F)F)nc1SCc1ccc(Cl)cc1)c1ccc(NS(C)(=O)=O)c(F)c1 (centres undefined) please.
### Response 8.7

### Prompt Report Ki for CC(C(=O)NCc1ccc(C(F)(F)F)nc1SC1CCCCC1C)c1ccc(NS(C)(=O)=O)c(F)c1 (centres undefined) please.
### Response 1.9
